settings: pH 7.4
Recorded measurements of Solubility, Mean, one per entry
metric-name: Solubility, Mean (µM)

compound	metric-name	result
O=C1NC(=O)C(c2ccccc2)(c2ccccc2)N1	Solubility, Mean	83.6
CC(=O)N1CCN(c2ccc(OCC3COC(Cn4ccnc4)(c4ccc(Cl)cc4Cl)O3)cc2)CC1 (centres unmarked)	Solubility, Mean	136.7
CC/C(=C(/CC)c1ccc(O)cc1)c1ccc(O)cc1	Solubility, Mean	31.5

---

details: pH 7.4
Where a name gives a salt, the structure may show the parent alone.
Lab note: compare Solubility, 1st against 100 µM. Equal or greater, write yes. Smaller, write no.

compound	qualitative-label
CO[C@H]1/C=C/O[C@@]2(C)Oc3c(C)c(O)c4c(O)c(c(/C=N/N5CCN(C)CC5)c(O)c4c3C2=O)NC(=O)/C(C)=C\C=C\[C@H](C)[C@H](O)[C@@H](C)[C@@H](O)[C@@H](C)[C@H](OC(C)=O)[C@@H]1C	yes
COCCc1ccc(OCC(O)CNC(C)C)cc1 (centres unmarked) [Metoprolol tartrate]	yes
CC/C(=C(/CC)c1ccc(O)cc1)c1ccc(O)cc1	no
CC(=O)N1CCN(c2ccc(OCC3COC(Cn4ccnc4)(c4ccc(Cl)cc4Cl)O3)cc2)CC1 (centres unmarked)	yes
O=C1NC(=O)C(c2ccccc2)(c2ccccc2)N1	no

---

Measured Solubility, 2nd by item
conditions: pH 7.4
Structures can show the parent of a compound that is named as a salt.

compound	Solubility, 2nd / µM
CC(=O)N1CCN(c2ccc(OCC3COC(Cn4ccnc4)(c4ccc(Cl)cc4Cl)O3)cc2)CC1 (centres unmarked) [Ketoconazole]	138.59
CC/C(=C(/CC)c1ccc(O)cc1)c1ccc(O)cc1 [Diethylstilbestrol]	13.64
O=C1NC(=O)C(c2ccccc2)(c2ccccc2)N1 [Phenytoin]	88.70
COCCc1ccc(OCC(O)CNC(C)C)cc1 (centres unmarked) [Metoprolol tartrate]	225.55
CO[C@H]1/C=C/O[C@@]2(C)Oc3c(C)c(O)c4c(O)c(c(/C=N/N5CCN(C)CC5)c(O)c4c3C2=O)NC(=O)/C(C)=C\C=C\[C@H](C)[C@H](O)[C@@H](C)[C@@H](O)[C@@H](C)[C@H](OC(C)=O)[C@@H]1C [Rifampicin]	234.78

---

Protein target, amino acids: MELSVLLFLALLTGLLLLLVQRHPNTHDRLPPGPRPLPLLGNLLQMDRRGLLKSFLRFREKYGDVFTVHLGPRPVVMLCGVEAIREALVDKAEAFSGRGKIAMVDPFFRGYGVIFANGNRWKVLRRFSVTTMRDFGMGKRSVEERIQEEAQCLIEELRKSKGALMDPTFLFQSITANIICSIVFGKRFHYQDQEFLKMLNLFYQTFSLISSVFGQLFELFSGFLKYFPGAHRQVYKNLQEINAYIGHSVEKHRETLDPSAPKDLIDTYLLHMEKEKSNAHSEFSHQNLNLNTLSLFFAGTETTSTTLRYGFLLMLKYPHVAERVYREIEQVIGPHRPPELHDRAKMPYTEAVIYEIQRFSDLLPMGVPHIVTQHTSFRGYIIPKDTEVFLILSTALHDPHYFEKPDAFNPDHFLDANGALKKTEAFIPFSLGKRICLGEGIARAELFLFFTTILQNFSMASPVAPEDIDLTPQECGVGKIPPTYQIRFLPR
metric-name: IC50 (µM)

molecule	metric-name	result
CC(=O)N1CCN(c2ccc(OCC3COC(Cn4ccnc4)(c4ccc(Cl)cc4Cl)O3)cc2)CC1 (stereo not shown)	IC50	5.4
